# assay_system: KRas G12C (Homo sapiens, UniProt P01116, G12C)
# Sequence (P01116 1-169 isoform P01116-2 G12C): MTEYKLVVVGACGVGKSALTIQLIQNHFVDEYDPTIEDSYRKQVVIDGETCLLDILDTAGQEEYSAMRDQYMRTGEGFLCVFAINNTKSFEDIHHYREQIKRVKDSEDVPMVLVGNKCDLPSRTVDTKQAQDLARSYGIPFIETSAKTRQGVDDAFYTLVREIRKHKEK
# Type: binding
# particulars: TR-FRET displacement, read-out: Binding to KRas (IC50 nM) G12C
value_kind: IC50 (nM)

In [3]: df
Out[3]:
                                   molecule  unit  observed_value
0  CCc1cccc2cccc(N3CCc4c(nc(OCC5(CN(C)C)CC5)nc4NCc4c(C)nnn4CC)C3)c12    nM             139
1  O=C1NC(=O)C2CN(c3nc(OCC45CCCN4CCC5)nc4c3CCN(c3cc(O)cc(Cl)c3C3CC3)C4)CC12 (stereo not shown)    nM               7
2  C=C1CN2CC(=C)CC2(COc2nc3c(c(N4C[C@@H]5C[C@H](C4)[C@H](O)C5)n2)CCN(c2cc(O)cc4ccc(F)c(CC)c24)C3)C1    nM               4
3  CCc1cccc2cccc(N3CCc4c(nc(OCC5(CN(C)C)CC5)nc4N4Cc5nncn5C(C)C4)C3)c12 (stereo not shown)    nM            2850
4  CCc1cccc2cccc(N3CCc4c(nc(OCC5(CN(C)C)CC5)nc4NCc4ccnn4CC(F)F)C3)c12    nM            5450
5  C[C@@]1(O)CCCN(c2nc(OC[C@@]34CCCN3C[C@H](F)C4)nc3c2CCN(c2ccc(F)c4sc(N)c(C#N)c24)C3)C1    nM              19
6  Cc1cc2[nH]ncc2c(N2CCc3c(nc(OCC45CCCN4CCC5)nc3N3CCCC4(CC(O)C4)C3)C2)c1C (single isomer, unassigned; isomer 1)    nM             464
7  Cc1cc2[nH]ncc2c(N2CCc3c(nc(OCC45CCCN4CCC5)nc3N3CCOCC(C)(O)C3)C2)c1C (stereo not shown)    nM             146

[a] CC1(O)COCCN(c2nc(OCC34CCCN3CCC4)nc3c2CCN(c2cc(O)cc(Cl)c2C2CC2)C3)C1 (stereo not shown)
[b] CCc1c(F)ccc2cccc(N3CCc4c(nc(OC[C@@]56CCCN5C[C@H](F)C6)nc4N4CCCn5nc(C(=O)N(C)C)cc5C4)C3)c12
[c] CCc1cccc2cccc(N3CCc4c(nc(OCC5(CN(C)C)CC5)nc4NC4CN(c5nncs5)C4)C3)c12
Sort the molecules on IC50; start with the lowest figure. State the ranking by listing the labels in the requested order.
b, a, c

###

# assay_system: KRas G12S (Homo sapiens, UniProt P01116, G12S)
# Sequence (P01116 1-169 isoform P01116-2 G12S): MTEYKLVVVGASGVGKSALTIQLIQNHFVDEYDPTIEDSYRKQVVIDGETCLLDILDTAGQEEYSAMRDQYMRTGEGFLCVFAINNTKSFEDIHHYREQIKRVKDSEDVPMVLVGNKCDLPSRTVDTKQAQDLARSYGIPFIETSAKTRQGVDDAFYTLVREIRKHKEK
# Format: binding
# particulars: TR-FRET displacement, read-out: Binding to KRas (IC50 nM) G12S
value_kind: IC50 (nM)

Past entries and their recorded results:
                                   compound  observed_value
0  CC1(O)COCCN(c2nc(OCC34CCCN3CCC4)nc3c2CCN(c2cc(O)cc(Cl)c2C2CC2)C3)C1 (stereo not shown) [Example 436]              10
1  CN(C)C(=O)c1cc2n(n1)CCCN(c1nc(OCC34CCCN3CCC4)nc3c1CCN(c1cc(O)cc(Cl)c1C1CC1)C3)C2 [Example 437]               4

[I] O=C1NC(=O)C2CN(c3nc(OCC45CCCN4CCC5)nc4c3CCN(c3cc(O)cc(Cl)c3C3CC3)C4)CC12 (stereo not shown) [Example 445]
[II] CCc1cccc2cccc(N3CCc4c(nc(OCC5(CN(C)C)CC5)nc4N4CCN(C(=O)c5c[nH]c(=O)[nH]5)CC4)C3)c12 [Example 536]
[III] Cc1cc2[nH]ncc2c(N2CCc3c(nc(OCC45CCCN4CCC5)nc3N3CCCC4(CNS(=O)(=O)N4)C3)C2)c1C (stereo not shown) [Example 452]
// ranking: key=IC50, reverse=True State the ranking by listing the labels in the requested order.
II, III, I

###

# assay_system: KRas Q61H (Homo sapiens, UniProt P01116, Q61H)
# Sequence (P01116 1-169 isoform P01116-2 Q61H): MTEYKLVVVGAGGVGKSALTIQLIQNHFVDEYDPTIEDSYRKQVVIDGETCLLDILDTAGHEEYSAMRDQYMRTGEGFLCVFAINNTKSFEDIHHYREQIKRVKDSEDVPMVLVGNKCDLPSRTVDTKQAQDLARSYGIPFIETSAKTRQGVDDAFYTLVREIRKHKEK
# assay_info: KRas binding assay (TR-FRET displacement), KRas Q61H
# particulars: single point, 10 nM compound
value_kind: inhibition at 0.01 µM (%)

>>> df
                                   molecule             value_kind  observed_value
0  CCc1c(F)ccc2cc(O)cc(N3CCc4c(nc(OC[C@@]56CCCN5C[C@H](F)C6)nc4N4CCCn5nc(C(=O)OC)cc5C4)C3)c12 [Example 411]  inhibition at 0.01 µM              71
1  CCc1c(F)ccc2cc(O)cc(N3CCc4c(nc(OC[C@@]56CCCN5C[C@H](F)C6)nc4N4CCCn5nc(C(=O)N6CCN(C)CC6)cc5C4)C3)c12 [Example 402]  inhibition at 0.01 µM              98
2  CCc1c(F)ccc2cc(O)cc(N3CCc4c(nc(OC[C@@]56CCCN5C[C@H](F)C6)nc4N4CCCn5nc(C(=O)NC6CC6)cc5C4)C3)c12 [Example 384]  inhibition at 0.01 µM              95
3  CCc1c(F)ccc2cc(O)cc(N3CCc4c(nc(OC[C@@]56CCCN5C[C@H](F)C6)nc4N4CCCn5nc(C(=O)NC(C)C)c(Cl)c5C4)C3)c12 [Example 386]  inhibition at 0.01 µM              97
4  CCc1c(F)ccc2cc(O)cc(N3CCc4c(nc(OC[C@@]56CCCN5C[C@H](F)C6)nc4N4CCCOCC4)C3)c12 [Example 420]  inhibition at 0.01 µM              97
5  CCc1c(F)ccc2cc(O)cc(N3CCc4c(nc(OC[C@@]56CCCN5C[C@H](F)C6)nc4N4CCCn5nc(C(=O)N6CC7CCC(C7)C6)cc5C4)C3)c12 [Example 302]  inhibition at 0.01 µM              93

###

# assay_system: KRas Q61H (Homo sapiens, UniProt P01116, Q61H)
# assay_info: KRas binding assay (TR-FRET displacement), KRas Q61H
# particulars: single point, 10 nM compound
value_kind: inhibition at 0.01 µM (%)

Past entries and their recorded results:
In [3]: df
Out[3]:
                                chem_smiles  unit  observed_value
0  CCc1c(F)ccc2cc(O)cc(N3CCc4c(nc(OC[C@@]56CCCN5C[C@H](F)C6)nc4N4CCCn5nc(C(=O)N6C[C@@H](C)N[C@@H](C)C6)cc5C4)C3)c12     %              98
1  CCc1c(F)ccc2cc(O)cc(N3CCc4c(nc(OC[C@@]56CCCN5C[C@H](F)C6)nc4N4CCCn5nc(C(=O)N6C7CCCC6CC7)cc5C4)C3)c12     %              95
2  CCc1c(F)ccc2cc(O)cc(N3CCc4c(nc(OC[C@@]56CCCN5C[C@H](F)C6)nc4N4CCCn5nc(C(=O)N(C)C(C)C)cc5C4)C3)c12     %              97
3  CCc1c(C(=O)N(C)C)nn2c1CN(c1nc(OC[C@@]34CCCN3C[C@H](F)C4)nc3c1CCN(c1cc(O)cc4ccc(F)c(CC)c14)C3)CCC2     %              99

[I] CCc1c(F)ccc2cc(O)cc(N3CCc4c(nc(OC[C@@]56CCCN5C[C@H](F)C6)nc4N4CCCn5nc(C(=O)N(C)C6CC6)cc5C4)C3)c12
[II] CCc1c(F)ccc2cc(O)cc(N3CCc4c(nc(OC[C@@]56CCCN5C[C@H](F)C6)nc4N4CCCn5nc(CN(C)C(=O)N(C)C)cc5C4)C3)c12
[III] CCc1c(F)ccc2cc(O)cc(N3CCc4c(nc(OC[C@@]56CCCN5C[C@H](F)C6)nc4N4CCCn5nc(NC)c(C)c5C4)C3)c12
// ranking: key=inhibition at 0.01 µM, reverse=True State the ranking by listing the labels in the requested order.
I, III, II
(I: 98%, III: 51%, II: 33%)

###

# assay_system: KRas G12C (Homo sapiens, UniProt P01116, G12C)
# Assay type: binding
# particulars: TR-FRET displacement, read-out: Binding to KRas (IC50 nM) G12C
value_kind: IC50 (nM)

In [3]: df
Out[3]:
                                   molecule                              assay_system  unit  observed_value
0  Cc1cc2[nH]ncc2c(N2CCc3c(nc(OCC45CCCN4CCC5)nc3N3CC4C(=O)NC(=O)C4C3)C2)c1C (stereo not shown)  KRas G12C (Homo sapiens, UniProt P01116, G12C)    nM             153
1  CCc1cccc2cccc(N3CCc4c(nc(OCC5(CN(C)C)CC5)nc4N4CCCN(CC(F)(F)F)CC4)C3)c12  KRas G12C (Homo sapiens, UniProt P01116, G12C)    nM            1810

[A] CCc1cccc2cccc(N3CCc4c(nc(OCC5(CN(C)C)CC5)nc4NCc4cnc(C)nc4N)C3)c12
[B] CCc1cccc2cccc(N3CCc4c(nc(OCC5(CN(C)C)CC5)nc4N(C)Cc4nnnn4C)C3)c12
[C] Cc1cc2[nH]ncc2c(N2CCc3c(nc(OCC45CCCN4CCC5)nc3N3CCCC4(CNC(=O)N4)C3)C2)c1C (stereo not shown)
// ranking: key=IC50, reverse=True State the ranking by listing the labels in the requested order.
A, B, C
(A: 6330 nM, B: 3700 nM, C: 19 nM)

[P] CCc1cccc2cccc(N3CCc4c(nc(OCC5(CN(C)C)CC5)nc4N4CCOC(C(F)F)CC4)C3)c12 (stereo not shown)
[Q] CCc1cccc2cccc(N3CCc4c(nc(OCC5(CN(C)C)CC5)nc4N4CCC(F)C(OC)C4)C3)c12 (stereo not shown)
Could you please tell me which of these two has the higher IC50: P or Q ? State the label of the item chosen.
Q
(Q: 634 nM, P: 180 nM)
